Quick reference for IC50 among some compounds
Tested on: 855422-203-R-J1-PDC complex spheroid viability
Test: Anticancer human tumor 855422-203-R-J1-PDC patient-derived bladder carcinoma cell line growth inhibition
Conditions: curve of compound

The cases that follow already have their IC50 on record.
CC(C)c1c(-c2ccccc2)nc2c(C#N)c[nH]n2c1=O; > 10 µM
Nc1ncn(C2CC(O)C(CO)S2)c(=O)n1 (stereo not drawn); > 0.3 µM
CCc1c2c(nc3ccc(O)cc13)-c1cc3c(c(=O)n1C2)COC(=O)[C@]3(O)CC; < 0.000949 µM

Requested field: IC50. Item: COc1cc(Nc2ncc3c(n2)-c2ccc(Cl)cc2C(c2c(F)cccc2OC)=NC3)ccc1C(=O)O
> 1 µM

Requested field: IC50. Item: Nc1ncn(C2CC(O)C(CO)O2)c(=O)n1 (stereo not drawn)
> 1 µM

Requested field: IC50. Item: CCN(c1cc(-c2ccc(CN3CCOCC3)cc2)cc(C(=O)NCc2c(C)cc(C)[nH]c2=O)c1C)C1CCOCC1
> 3 µM

Requested field: IC50. Item: O=C(c1cc(Cc2n[nH]c(=O)c3ccccc23)ccc1F)N1CCN(C(=O)C2CC2)CC1
> 10 µM

Requested field: IC50. Item: Cn1ncnc1C1c2n[nH]c(=O)c3cc(F)cc(c23)NC1c1ccc(F)cc1 (stereo not drawn)
> 0.1 µM

====

System: 855422-203-R-J1-PDC complex spheroid viability
Test: Anticancer human tumor 855422-203-R-J1-PDC cell line growth inhibition;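 further: drug exposure lasted 7 days starting on day 3 after seeding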;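 on viability, T/C: luminescence viability as percent of DMSO vehicle wells = 100%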
Conditions: second compound 0.1 µM; first compound 0.949 µM; stronger effect = lower value
Criterion: viability, T/C strictly less than 40%. Met: MET. Not met: NOT MET.

CCN(c1cc(-c2ccc(CN3CCOCC3)cc2)cc(C(=O)NCc2c(C)cc(C)[nH]c2=O)c1C)C1CCOCC1 + NC1CCC(NC2CC2c2ccccc2)CC1; NOT MET
O=C(C=Cc1cccc(S(=O)(=O)Nc2ccccc2)c1)NO + NC1CC1c1ccc(-c2cccc(O)c2)cc1; MET

Lab note: confirm whether the reported viability, T/C for this compound is below 40%, equality not counting. compound: COc1cc(C2c3cc4c(cc3C(OC3OC5COC(C)OC5C(O)C3O)C3COC(=O)C23)OCO4)cc(OC)c1O (stereo unspecified) + NC1CCC(NC2CC2c2ccccc2)CC1
MET

Lab note: confirm whether the reported viability, T/C for this compound is below 40%, equality not counting. compound: Nc1ccccc1NC(=O)c1ccc(CNC(=O)OCc2cccnc2)cc1 + NC1CCC(NC2CC2c2ccccc2)CC1
NOT MET

Lab note: confirm whether the reported viability, T/C for this compound is below 40%, equality not counting. compound: Nc1ccccc1NC(=O)c1ccc(CNC(=O)OCc2cccnc2)cc1 + NC1CC1c1ccc(-c2cccc(O)c2)cc1
NOT MET

====

Test system: 855422-203-R-J1-PDC complex spheroid viability
Experiment: Anticancer human tumor 855422-203-R-J1-PDC cell line growth inhibition;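 further: drug exposure lasted 7 days starting on day 3 after seeding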;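 on viability, T/C: luminescence viability as percent of DMSO vehicle wells = 100%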
Conditions: second compound 0.1 µM; first compound 0.0316 µM; stronger effect = lower value
Quick reference for viability, T/C among some molecules

CC1(C)CCC(CN2CCN(c3ccc(C(=O)NS(=O)(=O)c4ccc(NCC5CCOCC5)c([N+](=O)[O-])c4)c(Oc4cnc5[nH]ccc5c4)c3)CC2)=C(c2ccc(Cl)cc2)C1 + NC1CC1c1ccc(-c2cccc(O)c2)cc1; 90.2%
Cn1ncnc1C1c2n[nH]c(=O)c3cc(F)cc(c23)NC1c1ccc(F)cc1 (centres undefined) + NC1CC1c1ccc(-c2cccc(O)c2)cc1; 80.9%
O=C(c1cc(Cc2n[nH]c(=O)c3ccccc23)ccc1F)N1CCN(C(=O)C2CC2)CC1 + NC1CCC(NC2CC2c2ccccc2)CC1; 89.1%
CC1COCCN1c1cc(C2(S(C)(=N)=O)CC2)nc(-c2ccnc3[nH]ccc23)n1 (centres undefined) + NC1CC1c1ccc(-c2cccc(O)c2)cc1; 93.1%
COc1cc(Nc2ncc3c(n2)-c2ccc(Cl)cc2C(c2c(F)cccc2OC)=NC3)ccc1C(=O)O + NC1CCC(NC2CC2c2ccccc2)CC1; 78.8%
CC(C)c1c(-c2ccccc2)nc2c(C#N)c[nH]n2c1=O + NC1CCC(NC2CC2c2ccccc2)CC1; 82.4%
CC[C@@]1(O)C(=O)OCc2c1cc1n(c2=O)Cc2cc3c(CN(C)C)c(O)ccc3nc2-1 + NC1CC1c1ccc(-c2cccc(O)c2)cc1; 21.8%
CC1COCCN1c1cc(C2(S(C)(=N)=O)CC2)nc(-c2ccnc3[nH]ccc23)n1 (centres undefined) + NC1CCC(NC2CC2c2ccccc2)CC1; 98.1%

Requested field: viability, T/C. Item: CC(C)CC(NC(=O)CNC(=O)c1cc(Cl)ccc1Cl)B1OC(=O)CC(CC(=O)O)(C(=O)O)O1 (centres undefined) + NC1CC1c1ccc(-c2cccc(O)c2)cc1
0.02%

Requested field: viability, T/C. Item: CC1COCCN1c1cc(-c2ccnn2C)c2ccnc(-c3ccn[nH]3)c2n1 (centres undefined) + NC1CC1c1ccc(-c2cccc(O)c2)cc1
100%

Requested field: viability, T/C. Item: CC1(C)CCC(CN2CCN(c3ccc(C(=O)NS(=O)(=O)c4ccc(NCC5CCOCC5)c([N+](=O)[O-])c4)c(Oc4cnc5[nH]ccc5c4)c3)CC2)=C(c2ccc(Cl)cc2)C1 + NC1CCC(NC2CC2c2ccccc2)CC1
103%

Where do these numbers come from? They come from PubChem BioAssay AID1918943.
